# System: S. cerevisiae Mot1-301 ts growth rescue, BacTiter-Glo ATP luminescence
# protocolDescription: restored Mot1-301 yeast growth at 38.5C – whole organism, S. cerevisiae, Mot1-301 ts mutant, luminescence, dose retest, SUMOylation pathway inhibitor project, confirmation (AID 463204);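 further: growth at restrictive 38.5 degrees C of Mot1-301 OY566 strain; actives raise luminescence by restoring growth of the ts mutant at high temperature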
Active and inactive are the calls of the source.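 How the source made its calls: active means AC50 no more than ten times the top concentration tested, that is within one log above it; inconclusive means flat curve fit with activity between 30% and 70%, or invalid poor fit; inactive means AC50 beyond ten times the top tested dose.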
Outcomes: active, inactive

> print(dat)
                                    molecule                                measuredon  assignedcategory
 1         O=c1cc(COc2ncnc3ccccc23)nc2sccn12  S. cerevisiae Mot1-301 ts growth rescue, BacTiter-Glo ATP luminescence          inactive
 2     CCc1nc2ccc(C(=O)N3CCN(CC)CC3)cc2nc1CC  S. cerevisiae Mot1-301 ts growth rescue, BacTiter-Glo ATP luminescence          inactive
 3  Cc1cc(C)c(NC(=O)CNC(=O)c2cc([N+](=O)[O-])ccc2N2CCOCC2)c(C)c1  S. cerevisiae Mot1-301 ts growth rescue, BacTiter-Glo ATP luminescence          inactive
 4  C[C@@]12C(=O)Nc3cc(F)ccc3C(=O)N1[C@H]1c3ccccc3OC[C@@H]1[C@@H]2c1ccccc1  S. cerevisiae Mot1-301 ts growth rescue, BacTiter-Glo ATP luminescence            active
 5  COC(=O)C1=C(C)N(Cc2ccccc2)C(=S)N[C@H]1c1cccc(F)c1  S. cerevisiae Mot1-301 ts growth rescue, BacTiter-Glo ATP luminescence          inactive
 6              O=C(c1ccccc1F)N1CCCc2ccccc21  S. cerevisiae Mot1-301 ts growth rescue, BacTiter-Glo ATP luminescence          inactive
 7         CN(C)C(=O)CN1C(=O)c2cccc3cccc1c23  S. cerevisiae Mot1-301 ts growth rescue, BacTiter-Glo ATP luminescence          inactive
 8  COc1ccccc1N1CCN(C(=O)C(=O)N/N=C/c2ccccc2F)CC1  S. cerevisiae Mot1-301 ts growth rescue, BacTiter-Glo ATP luminescence          inactive
 9  CC1CN(S(=O)(=O)c2cccc(C(=O)N=c3sccn3C)c2)CC(C)O1 (stereo unspecified)  S. cerevisiae Mot1-301 ts growth rescue, BacTiter-Glo ATP luminescence          inactive
10    CN(C)CC/C=C1/c2cc(F)ccc2Sc2ccc(Cl)cc21  S. cerevisiae Mot1-301 ts growth rescue, BacTiter-Glo ATP luminescence          inactive
11  CC(C)C(CC(=O)NCc1ccco1)c1ccco1 (stereo unspecified)  S. cerevisiae Mot1-301 ts growth rescue, BacTiter-Glo ATP luminescence          inactive

###

# System: S. cerevisiae Mot1-301 ts growth rescue, BacTiter-Glo ATP luminescence
# protocolDescription: restored Mot1-301 yeast growth at 38.5C – whole organism, S. cerevisiae, Mot1-301 ts mutant, luminescence, dose retest, SUMOylation pathway inhibitor project, confirmation (AID 463204);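 further: growth at restrictive 38.5 degrees C of Mot1-301 OY566 strain; actives raise luminescence by restoring growth of the ts mutant at high temperature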
Calls of active or inactive are those of the source.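 Rule for the calls: active = AC50 no more than ten times the top concentration tested, that is within one log above it; inconclusive = flat curve fit with activity between 30% and 70%, or invalid poor fit; inactive = AC50 beyond ten times the top tested dose.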
Classes used: label 1 = active, label 0 = inactive

> print(dat)
                                    compound                                measuredon  assignedcategory
 1                    C=CCn1c(CCC)nc2ccccc21  S. cerevisiae Mot1-301 ts growth rescue, BacTiter-Glo ATP luminescence           label 0
 2       CC(C)C(=O)Nc1ccc(-c2nc3cccnc3o2)cc1  S. cerevisiae Mot1-301 ts growth rescue, BacTiter-Glo ATP luminescence           label 0
 3  CCOC(=O)C1=C[C@]2(CC)CCCN3CCc4c(n1c1ccccc41)[C@@H]32  S. cerevisiae Mot1-301 ts growth rescue, BacTiter-Glo ATP luminescence           label 0
 4  N#CC1=C(N)Nc2ncnn2C1c1ccc([N+](=O)[O-])cc1 (stereo not given)  S. cerevisiae Mot1-301 ts growth rescue, BacTiter-Glo ATP luminescence           label 0
 5  CC(C)C1OC2(C)OC(=N)C1(C#N)C(C#N)(C#N)C2c1ccccc1 (stereo not given)  S. cerevisiae Mot1-301 ts growth rescue, BacTiter-Glo ATP luminescence           label 0
 6  Fc1cccc(NC(=S)N2CCn3cccc3C2c2cccnc2)c1 (stereo not given)  S. cerevisiae Mot1-301 ts growth rescue, BacTiter-Glo ATP luminescence           label 0
 7  O=C(c1ccc([N+](=O)[O-])o1)N1CCN(c2nc3c(Cl)cccc3s2)CC1  S. cerevisiae Mot1-301 ts growth rescue, BacTiter-Glo ATP luminescence           label 1
 8              COc1cc(SC)ccc1C(=O)N1CCCCCC1  S. cerevisiae Mot1-301 ts growth rescue, BacTiter-Glo ATP luminescence           label 0
 9              O=C(NCCCn1ccnc1)c1ccc(Cl)cc1  S. cerevisiae Mot1-301 ts growth rescue, BacTiter-Glo ATP luminescence           label 0
10  CCC12CN3CCN(CC(C3)/C1=N/NC(=O)c1ccncc1)C2  S. cerevisiae Mot1-301 ts growth rescue, BacTiter-Glo ATP luminescence           label 0
11  CN(Cc1ccccc1)c1ccc(S(=O)(=O)N2CCC(C(=O)O)CC2)cc1[N+](=O)[O-]  S. cerevisiae Mot1-301 ts growth rescue, BacTiter-Glo ATP luminescence           label 0
12  CN(CC(=O)NCc1cccs1)S(=O)(=O)c1cccc2nsnc12  S. cerevisiae Mot1-301 ts growth rescue, BacTiter-Glo ATP luminescence           label 0
13  CC(C)[C@H](NC(=O)C1(c2ccccc2)CCN(C(=O)OC(C)(C)C)CC1)C(=O)O  S. cerevisiae Mot1-301 ts growth rescue, BacTiter-Glo ATP luminescence           label 0
14         Cc1ccccc1-n1c(-c2cccnc2)n[nH]c1=S  S. cerevisiae Mot1-301 ts growth rescue, BacTiter-Glo ATP luminescence           label 0
15      Oc1c(Br)cc(Br)cc1C=Nc1ccc2[nH]ncc2c1  S. cerevisiae Mot1-301 ts growth rescue, BacTiter-Glo ATP luminescence           label 1

Origin of values: PubChem BioAssay AID463204
